Consider the following pIC50 data for UniProt A3EZJ3, collected from several reports.
pIC50: −log10 of the molar value.
measuredProperty: pIC50

1) CC[C@H](NC(=O)[C@H](CC1CCCCC1)NC(=O)[C@@H](NC(=O)[C@H](CC(C)C)NC(=O)c1cnccn1)[C@@H](C)CC)C(=O)C(=O)NCC(=O)NS(=O)(=O)c1ccc(-c2ccccc2)cc1 : 5.62
2) CC[C@H](NC(=O)[C@@H]1C[C@@](C)(NC(=O)Nc2ccccc2SC)c2ncc(NCc3cccc(C(F)(F)F)c3)c(=O)n21)B1OC2C3CC(C[C@]2(C)O1)C3(C)C (stereo partly specified) : 6.15
3) CC[C@H](NC(=O)[C@@H]1C[C@@](C)(CC(=O)Nc2ccccc2C(=O)N(C)C)c2ncc(NCc3cccc(C(F)(F)F)c3)c(=O)n21)B1OC2C3CC(C[C@]2(C)O1)C3(C)C (stereo partly specified) : 5.84
4) O=C(OC[C@H]1O[C@@H](OC(=O)c2cc(O)c(O)c(O)c2)[C@H](OC(=O)c2cc(O)c(O)c(O)c2)[C@@H](O)[C@@H]1O)c1cc(O)c(O)c(O)c1 : 5.72
5) C=CCC(NC(=O)[C@H]1CCCN1C(=O)[C@@H](NC(=O)[C@@H](NC(=O)[C@H](CCC(=O)O)NC(=O)[C@@H](N)CC(=O)O)C(C)C)C(C)C)C(=O)C(=O)NCC (stereo partly specified) : 6.46
6) COC(=O)CN1C(=O)/C(=C/c2cc3c(cc2[N+](=O)[O-])OCO3)SC1=S : 4.15
7) CC[C@H](C)[C@H](NC(=O)[C@H](CC(=O)O)NC(=O)[C@H](CC(=O)O)NC(C)=O)C(=O)N[C@H](C(=O)N1CCC[C@H]1C(=O)NC(CS)C(=O)O)C(C)C (single isomer, unassigned) : 3.48
8) CC[C@H](NC(=O)[C@H](CC1CCCCC1)NC(=O)[C@@H](NC(=O)[C@H](CC(C)C)NC(=O)c1cnccn1)[C@@H](C)CC)C(=O)C(=O)NCC(=O)NS(=O)(=O)c1cccc([N+](=O)[O-])c1 : 6.39
9) C=C[C@@H]1C[C@]1(NC(=O)C1CC(Oc2cc(-c3ccccc3)nc3ccccc23)CN1C(=O)[C@@H](NC(=O)[C@@H](NC(C)=O)C1CCCCC1)C(C)C)C(=O)O (single isomer, unassigned) : 7.89
10) CC(C)C[C@H](NC(=O)C1(Cc2ccsc2C(=O)O)Cc2ccccc2N1)C(=O)NC(CC(F)F)C(=O)C(=O)O (single isomer, unassigned; diastereomer 4) : 4.14
11) CCOC(=O)c1ccc(NC(=O)N[C@]2(C)C[C@@H](C(=O)N[C@@H](CC)B3OC4C5CC(C[C@]4(C)O3)C5(C)C)n3c2ncc(NCc2cccc(C(F)(F)F)c2)c3=O)cc1 (stereo partly specified) : 5.96
